assay explanation: The biological half life the compound was measured at the dose of 30 umol/kg
Format: ADME, organism-based
conditions: rat, in vivo
metric name: half-life (h)

>  <smiles repr>
C[C@@H]1CN(C(=O)[C@@](C)(O)C(F)(F)F)CCN1C(=O)c1ccc(C#N)cc1

>  <metric name>
half-life

>  <measure unit>
h

>  <data value>
3

$$$$

* * *

assay explanation: The time to reach maximum concentration of compound was measured at the dose of 300 umol/kg
Assay type: ADME, organism-based
conditions: rat, in vivo

>  <smiles repr>
C[C@@](O)(C(=O)Nc1ccc(S(=O)(=O)N2CCNCC2)cc1Cl)C(F)(F)F

>  <Tmax, h>
6

$$$$

* * *

assay system: pyruvate dehydrogenase kinase (Sus scrofa)
assay explanation: In vitro inhibitory activity against Pyruvate dehydrogenase kinase by primary enzymatic assay
Range-based classes on measured IC50: one (below 80 nM), two (80 nM to below 300 nM), three (300 nM or more)

>  <smiles repr>
C[C@@H]1CN(C(=O)[C@@](C)(O)C(F)(F)F)CCN1C(=O)OCc1ccccc1

>  <label>
one

$$$$
>  <smiles repr>
C[C@](O)(C(=O)Nc1ccccc1Cl)C(F)(F)F

>  <label>
three

$$$$
>  <smiles repr>
C[C@@](O)(C(=O)NC1CCCCC1)C(F)(F)F

>  <label>
three

$$$$
>  <smiles repr>
C[C@@](O)(C(=O)Nc1ccc(C(=O)O)cc1Cl)C(F)(F)F

>  <label>
two

$$$$
>  <smiles repr>
COC(=O)c1ccc(NC(=O)[C@@](C)(O)C(F)(F)F)c(Cl)c1

>  <label>
two

$$$$
>  <smiles repr>
C[C@@](O)(C(=O)Nc1ccc(S(=O)(=O)N2CCNCC2)cc1Cl)C(F)(F)F

>  <label>
one

$$$$
>  <smiles repr>
C[C@@H]1CN(C(=O)[C@@](C)(O)C(F)(F)F)[C@@H](C)CN1C(=O)c1ccc(C#N)cc1

>  <label>
one

$$$$
>  <smiles repr>
C[C@@](O)(C(=O)Nc1ccc(S(=O)(=O)F)cc1Cl)C(F)(F)F

>  <label>
one

$$$$
>  <smiles repr>
C[C@@](O)(C(=O)N1CCN(C(=O)c2ccc(C#N)cc2)CC1)C(F)(F)F

>  <label>
three

$$$$

* * *

assay explanation: The maximum concentration of compound was measured at the dose of 30 umol/kg
Type: ADME, organism-based
Set-up: dose 30 umol/kg
conditions: rat, in vivo

>  <smiles repr>
C[C@@H]1CN(C(=O)[C@@](C)(O)C(F)(F)F)CCN1C(=O)c1ccc(C#N)cc1

>  <Cmax [µM]>
23.8

$$$$

* * *

assay explanation: The area under the curve of compound was measured at the dose of 30 umol/kg
Format: ADME, organism-based
conditions: rat, in vivo

>  <smiles repr>
C[C@@H]1CN(C(=O)[C@@](C)(O)C(F)(F)F)CCN1C(=O)c1ccc(C#N)cc1

>  <measure unit>
µM·h

>  <AUC>
196

$$$$

Taken from ChEMBL document CHEMBL1132309.
